System: Klebsiella aerogenes DSM 30053
ASSAY TEXT: growth (OD595) fold change vs plate DMSO controls (fold change (ratio)); higher = more growth
CONDITION SET: incubation time: 27 h, anaerobic, 37 °C
Structures can show the parent of a compound that is named as a salt.
PROPERTY: growth
Write no unit; give the number alone.

A selection of reference data follows.
{"MOLECULE": "CO/N=C(\\C(=O)N[C@@H]1C(=O)N2C(C(=O)[O-])=C(C[n+]3cccc4c3CCC4)CS[C@H]12)c1csc(N)n1 [Cefpirome sulfate] (20 µM)", "growth": 0.0713}
{"MOLECULE": "COc1cc([S+](C)[O-])ccc1-c1nc2cccnc2[nH]1 (configuration not stated) [Sulmazole] (20 µM)", "growth": 0.98}

Sample CCOc1ccc(NC(=O)CC(C)O)cc1 (configuration not stated) [Bucetin] (20 µM) ; growth observed: 0.995

Sample CCC(=O)OCC(=O)[C@@]1(OC(=O)CC)[C@H](C)C[C@H]2[C@H]3[C@H]([C@@H](O)C[C@@]21C)[C@@]1(C)C=CC(=O)C=C1C[C@H]3Cl [Alclometasone dipropionate] (20 µM) ; growth observed: 1.01

Sample CC(CCc1ccc(O)cc1)NCCc1ccc(O)c(O)c1 (configuration not stated) [Dobutamine hydrochloride] (20 µM) ; growth observed: 0.99

Sample c1ccc2c(c1)-c1cccc3c1c-2cc1ccccc13 [Benzo[b]fluoranthene] (20 µM) ; growth observed: 1.04

Sample Cc1nc2ccccn2c(=O)c1CCN1CCC(C(=O)c2ccc(F)cc2)CC1 [Pirenperone] (20 µM) ; growth observed: 1.01

====

System: Ruminococcus gnavus DSM 108212
ASSAY TEXT: fold change of 2-Phenylethylamine concentration vs plate DMSO controls (fold change (ratio)); higher = more amine produced, active = hit call of the paper (significant change in both replicates, either direction);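 for the amine columns active = adjusted P below 0.05 in both replicates with a change the same way and a mean fold change under 0.8 or over 1.25; inactive = the rest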
CONDITION SET: incubation time: 27 h, anaerobic, 37 °C
Structures can show the parent of a compound that is named as a salt.
Pick from TRUE for active, FALSE for inactive when you respond.

The following compounds have reported results that may help.
{"COMPOUND": "CC/C(=C(/CC)c1ccc(O)cc1)c1ccc(O)cc1 [Diethylstilbestrol] (20 µM)", "CATEGORY LABEL": "FALSE"}
{"COMPOUND": "COc1c(O)cc2c(c1O)[C@@H]1O[C@H](CO)[C@@H](O)[C@H](O)[C@H]1OC2=O [Bergenin] (20 µM)", "CATEGORY LABEL": "FALSE"}
{"COMPOUND": "CCOC(=O)NNc1nncc2ccccc12 [Todralazine hydrochloride] (20 µM)", "CATEGORY LABEL": "FALSE"}
{"COMPOUND": "C=CCc1ccccc1OCC(O)CNC(C)C (stereo unspecified) [Alprenolol hydrochloride] (20 µM)", "CATEGORY LABEL": "FALSE"}
{"COMPOUND": "CO[C@@]1(NC(=O)CSCC#N)C(=O)N2C(C(=O)O)=C(CSc3nnnn3C)CS[C@@H]21 [Cefmetazole sodium salt] (20 µM)", "CATEGORY LABEL": "FALSE"}

Now consider a different compound.
Problem: Outcome logged for CN(C)CCC(c1ccccc1)c1ccccn1 (stereo unspecified) [Pheniramine maleate] (20 µM) in this assay:
Result: FALSE

====

System: Clostridium sporogenes DSM 1664
ASSAY TEXT: growth (OD595) fold change vs plate DMSO controls (fold change (ratio)); higher = more growth
CONDITION SET: incubation time: 27 h, anaerobic, 37 °C
Where a name gives a salt, the structure may show the parent alone.
PROPERTY: growth
Write no unit; give the number alone.

{"COMPOUND": "CN[C@@H]1[C@@H](O)[C@@H](O[C@@H]2[C@@H](O)[C@H](O[C@H]3OC(CN)=CC[C@H]3N)[C@@H](N)C[C@H]2N)OC[C@]1(C)O [Sisomicin sulfate] (20 µM)", "growth": 0.97}

Sample C#C[C@]1(O)CC[C@H]2[C@@H]3CCC4=CCCC[C@@H]4[C@H]3CC[C@@]21C [Lynestrenol] (20 µM) ; growth observed: 0.94

Sample CN1C(C(=O)Nc2ccccn2)=C(O)c2ccccc2S1(=O)=O [Piroxicam] (20 µM) ; growth observed: 1.07

Sample CCCCCN(C)CCC(O)(P(=O)(O)O)P(=O)(O)O [Ibandronate sodium] (20 µM) ; growth observed: 1.07

====

System: Ruminococcus gnavus DSM 108212
ASSAY TEXT: fold change of 2-Phenylethylamine concentration vs plate DMSO controls (fold change (ratio)); higher = more amine produced, active = hit call of the paper (significant change in both replicates, either direction)
CONDITION SET: incubation time: 27 h, anaerobic, 37 °C
Where a name gives a salt, the structure may show the parent alone.
PROPERTY: fold change of 2-Phenylethylamine concentration
Write no unit; give the number alone.

A selection of reference data follows.
{"COMPOUND": "CNCCCC1c2ccccc2C=Cc2ccccc21 [Protriptyline hydrochloride] (20 µM)", "MEASURED TARGET": "Ruminococcus gnavus DSM 108212", "NUMERIC RESULT": 0.829}
{"COMPOUND": "O=C(C1CCCCC1)N1CC(=O)N2CCc3ccccc3C2C1 (configuration not stated) [Praziquantel] (20 µM)", "MEASURED TARGET": "Ruminococcus gnavus DSM 108212", "NUMERIC RESULT": 0.992}
{"COMPOUND": "CC1(C)O[C@@H]2C[C@H]3[C@@H]4CCC5=CC(=O)C=C[C@]5(C)[C@H]4[C@@H](O)C[C@]3(C)[C@]2(C(=O)CO)O1 [Desonide] (20 µM)", "MEASURED TARGET": "Ruminococcus gnavus DSM 108212", "NUMERIC RESULT": 1.23}

Moving on to another compound below.
Sample CC[N+](C)(CC)CCOC(=O)C1c2ccccc2Oc2ccccc21 [Methantheline bromide] (20 µM) ; fold change of 2-Phenylethylamine concentration observed: 1.05

====

System: Klebsiella aerogenes DSM 30053
ASSAY TEXT: growth (OD595) fold change vs plate DMSO controls (fold change (ratio)); higher = more growth
CONDITION SET: incubation time: 27 h, anaerobic, 37 °C
Where a name gives a salt, the structure may show the parent alone.
PROPERTY: growth
Write no unit; give the number alone.

Sample CCN(CC)CCNC(=O)c1ccc(N)cc1 [Procainamide hydrochloride] (20 µM) ; growth observed: 1.2

Sample COc1ccc2cc1Oc1ccc(cc1)C[C@H]1c3c(cc4c(c3Oc3cc5c(cc3OC)CCN(C)[C@@H]5C2)OCO4)CCN1C [Cepharanthine] (20 µM) ; growth observed: 1.02

Sample CCOC(=O)OC(C)OC(=O)[C@@H]1N2C(=O)[C@@H](NC(=O)[C@H](N)c3ccccc3)[C@H]2SC1(C)C (some centres undefined) [Bacampicillin hydrochloride] (20 µM) ; growth observed: 1.46

Sample OCCN1CCN(CC/C=C2/c3ccccc3Sc3ccc(Cl)cc32)CC1 [Zuclopenthixol dihydrochloride] (20 µM) ; growth observed: 1.01

====

System: Ruminococcus gnavus DSM 108212
ASSAY TEXT: growth (OD595) fold change vs plate DMSO controls (fold change (ratio)); higher = more growth
CONDITION SET: incubation time: 27 h, anaerobic, 37 °C
Overview of reported growth across a group of compounds:
Write no unit; give the number alone.

A selection of reference data follows.
{"COMPOUND": "CC(=O)N[C@H]1[C@H]([C@H](O)[C@H](O)CO)OC(C(=O)O)=C[C@@H]1NC(=N)N [Zanamivir] (20 µM)", "MEASURED TARGET": "Ruminococcus gnavus DSM 108212", "NUMERIC RESULT": 0.992}
{"COMPOUND": "Cc1c(F)c(N2CCNC(C)C2)cc2c1c(=O)c(C(=O)O)cn2C1CC1 (stereo not drawn) [Grepafloxacin] (20 µM)", "MEASURED TARGET": "Ruminococcus gnavus DSM 108212", "NUMERIC RESULT": 1.29}
{"COMPOUND": "Cn1nnc2c(C(N)=O)ncn2c1=O [Temozolomide] (20 µM)", "MEASURED TARGET": "Ruminococcus gnavus DSM 108212", "NUMERIC RESULT": 1.23}
{"COMPOUND": "Cc1cnc(NC(=O)C2=C(O)c3ccccc3S(=O)(=O)N2C)s1 [Meloxicam] (20 µM)", "MEASURED TARGET": "Ruminococcus gnavus DSM 108212", "NUMERIC RESULT": 0.801}
{"COMPOUND": "CC(C)CC(=O)N[C@H](C(=O)N[C@H](C(=O)N[C@@H](CC(C)C)[C@@H](O)CC(=O)N[C@@H](C)C(=O)N[C@@H](CC(C)C)[C@@H](O)CC(=O)O)C(C)C)C(C)C [Pepstatin A] (20 µM)", "MEASURED TARGET": "Ruminococcus gnavus DSM 108212", "NUMERIC RESULT": 1.06}

Sample CC(=O)NC[C@H]1CN(c2ccc(N3CCOCC3)c(F)c2)C(=O)O1 [Linezolid] (20 µM) ; growth observed: 0.196

Sample NC(=O)[C@@H]1CCCN1C(=O)[C@H](Cc1c[nH]cn1)NC(=O)[C@@H]1CCC(=O)N1 [Thyrotropin-Releasing Hormone] (20 µM) ; growth observed: 0.996

Sample Cc1nc2n(c(=O)c1CCN1CCC(c3noc4cc(F)ccc34)CC1)CCCC2 [Risperidone] (20 µM) ; growth observed: 1.02

From: the supplement of paper PMC12494721
